All figures here come from patent US12612424B2.

Listed molecules paired with reported JAKs/HPK1 IC50 Ratio, B*
- testedOn: JAK3 (Homo sapiens, UniProt P52333)
- Construct: purchased Thermo fisher PV3855
- Sequence (P52333 781-1124 limits assumed): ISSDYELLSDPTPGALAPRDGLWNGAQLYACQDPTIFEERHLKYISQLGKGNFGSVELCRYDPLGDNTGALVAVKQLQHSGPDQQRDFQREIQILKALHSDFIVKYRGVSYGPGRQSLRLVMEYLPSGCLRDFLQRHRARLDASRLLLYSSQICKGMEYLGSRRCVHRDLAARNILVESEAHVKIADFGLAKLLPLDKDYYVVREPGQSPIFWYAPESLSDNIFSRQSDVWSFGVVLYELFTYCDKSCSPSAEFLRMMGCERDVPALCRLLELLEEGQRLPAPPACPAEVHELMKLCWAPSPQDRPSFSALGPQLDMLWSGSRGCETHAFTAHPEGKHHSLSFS
- protocol: JAK3 biochemical assay (ADP-GLO Kinase Assay)
- studyConditions: ratio of JAK3 IC50 to HPK1 IC50; first testing facility

Illustrative cases are given below, each with its answer.
>  <molecule>
COc1cc2c(cc1Nc1ncc(Cl)c(-n3ncc4ccccc43)n1)CN(C)CC2

>  <JAKs/HPK1 IC50 Ratio, B*>
79

$$$$
>  <molecule>
COc1cc2c(cc1Nc1ncc3ccn(-c4ccccc4P(C)(C)=O)c3n1)CN(C)CC2

>  <JAKs/HPK1 IC50 Ratio, B*>
>18

$$$$
>  <molecule>
COc1cc2c(cc1Nc1ncc(Cl)c(N3C[C@](C)(C(=O)O)c4ccccc43)n1)CN(C)CC2 (single isomer, unassigned)

>  <JAKs/HPK1 IC50 Ratio, B*>
80

$$$$

// switching to the query molecule
Read off the recorded JAKs/HPK1 IC50 Ratio, B* for `COc1cc2c(cc1Nc1ncc(Cl)c(N3CCc4ccccc43)n1)CN(C(C)C)CC2` 223

====

- testedOn: JAK3 (Homo sapiens)
- Construct: purchased Thermo fisher PV3855
- protocol: JAK3 biochemical assay (ADP-GLO Kinase Assay)
- studyConditions: ratio of JAK3 IC50 to HPK1 IC50; first testing facility
assayReadout: JAKs/HPK1 IC50 Ratio, B*
Hey, just send me the number, nothing else.

>  <molecule>
CN1CCc2cc(F)c(Nc3ncc(Cl)c(N4CC(C)(CC(=O)O)c5ccccc54)n3)cc2C1 (centres unmarked)

>  <JAKs/HPK1 IC50 Ratio, B*>
29

$$$$
>  <molecule>
COc1cc2c(cc1Nc1ncc(Cl)c(N3CC(C(=O)O)c4c(OC)cccc43)n1)CN(C)CC2 (centres unmarked)

>  <JAKs/HPK1 IC50 Ratio, B*>
886

$$$$
>  <molecule>
CCc1c[nH]c2ncc(-c3ccc(CF)c(P(C)(C)=O)c3)cc12

>  <JAKs/HPK1 IC50 Ratio, B*>
19

$$$$
>  <molecule>
COc1cc2c(cc1Nc1ncc(Cl)c(-n3cc(CC(=O)O)c4cc(F)c(F)cc43)n1)CN(C)CC2

>  <JAKs/HPK1 IC50 Ratio, B*>
783

$$$$

Consider the molecule COc1cc2c(cc1Nc1ncc(Cl)c(N3CC(CC(=O)O)c4ccccc43)n1)CN(C)CC2 (centres unmarked) tested on JAK3 (Homo sapiens); state its JAKs/HPK1 IC50 Ratio, B*. 280

====

- System: Human Pan T Cell (IL-2 release)
- protocol: IL2 released by human pan T cell upon anti-CD3/anti-CD28 stimulation (ELISA)
- Assay type: cell-based
- studyConditions: Homo sapiens, T-cell, IL-2 response, human pan T cells, calculated with GraphPad Prism
assayReadout: EC50

Check Human Pan T Cell (IL-2 release) data and give EC50 for COc1cc2c(cc1Nc1ncc(Cl)c(N3C[C@](C)(C(=O)O)c4ccccc43)n1)CN(C)CC2 (single isomer, unassigned) . > 1000 nM

Given COc1cc2c(cc1Nc1ncc(Cl)c(N3CC(C(=O)O)c4ccccc43)n1)CN(C)CC2 (single isomer, unassigned) [Example 96] , report its EC50 on Human Pan T Cell (IL-2 release). 100 to 500 nM

Return reported EC50 for target or system Human Pan T Cell (IL-2 release), item COc1cc2c(cc1Nc1ncc(Cl)c(N3CC(C)(C(=O)O)c4ccc(F)cc43)n1)CN(C)CC2 (stereo not shown) . ≤ 100 nM

Write down the reported EC50 (system: Human Pan T Cell (IL-2 release)) of COc1cc2c(cc1Nc1ncc(Cl)c(N3CC(S(C)(=O)=O)c4ccccc43)n1)CN(C)CC2 (stereo not shown) 500 to 1000 nM

Quote EC50 with test system Human Pan T Cell (IL-2 release) for `COc1cc2c(cc1Nc1ncc3cc(C#N)n(-c4ccccc4)c3n1)CN(C)CC2` ≤ 100 nM

State EC50 (Human Pan T Cell (IL-2 release)) of `COc1cc2c(cc1Nc1ncc(Cl)c(-n3nc(C(=O)O)c4ccccc43)n1)CN(C)CC2` . > 1000 nM

Please report the measured EC50 for COc1cc2c(cc1Nc1ncc(Cl)c(N3CC(C(=O)O)c4ccccc43)n1)CN(C)CC2 (stereo not shown) [Example 32] tested on Human Pan T Cell (IL-2 release). 100 to 500 nM

====

- testedOn: HPK1 (Homo sapiens, UniProt Q92918)
- Sequence (Q92918 whole entry): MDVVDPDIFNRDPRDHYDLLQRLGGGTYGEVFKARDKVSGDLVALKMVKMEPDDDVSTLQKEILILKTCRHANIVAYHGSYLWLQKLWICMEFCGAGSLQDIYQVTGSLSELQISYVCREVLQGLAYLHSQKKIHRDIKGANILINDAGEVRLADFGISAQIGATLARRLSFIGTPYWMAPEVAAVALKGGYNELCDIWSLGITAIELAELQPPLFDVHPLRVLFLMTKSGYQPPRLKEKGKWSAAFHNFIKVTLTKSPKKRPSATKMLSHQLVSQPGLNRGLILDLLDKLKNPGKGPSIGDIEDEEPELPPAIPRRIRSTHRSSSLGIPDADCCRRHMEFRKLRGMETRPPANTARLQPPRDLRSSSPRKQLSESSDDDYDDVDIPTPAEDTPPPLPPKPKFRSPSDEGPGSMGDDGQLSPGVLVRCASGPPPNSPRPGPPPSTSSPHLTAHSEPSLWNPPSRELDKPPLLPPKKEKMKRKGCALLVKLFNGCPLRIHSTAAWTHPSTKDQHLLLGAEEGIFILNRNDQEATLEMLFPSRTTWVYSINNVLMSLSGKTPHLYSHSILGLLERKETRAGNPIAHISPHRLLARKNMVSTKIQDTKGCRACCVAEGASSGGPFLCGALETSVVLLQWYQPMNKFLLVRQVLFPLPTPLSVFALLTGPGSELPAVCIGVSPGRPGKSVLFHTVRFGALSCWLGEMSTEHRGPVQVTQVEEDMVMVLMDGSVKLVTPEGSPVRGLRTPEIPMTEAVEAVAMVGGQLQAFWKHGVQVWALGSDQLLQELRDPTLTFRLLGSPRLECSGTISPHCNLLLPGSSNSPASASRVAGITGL
- protocol: HPK1 biochemical assay (ADP-GLO Kinase Assay)
- studyConditions: B*: testing performed in a first testing facility; read-out: HPK1 IC50 (nM) Relative, B*
assayReadout: IC50

Past entries and their recorded results:
>  <molecule>
COc1cc2c(cc1Nc1ncc(Cl)c(N3CCc4cc(P(C)(C)=O)ccc43)n1)CN(C)CC2 [Example 86]

>  <result>
≤ 100 nM

$$$$
>  <molecule>
COc1cc2c(cc1Nc1ncc(Cl)c(N3CC(C)(CC(=O)O)c4cc(F)ccc43)n1)CN(C)CC2 (stereo not shown) [Example 150]

>  <result>
≤ 100 nM

$$$$
>  <molecule>
CCc1c[nH]c2ncc(-c3ccc(C(N)=O)c(P(C)(C)=O)c3)cc12 [Example 67]

>  <result>
100 to 500 nM

$$$$
>  <molecule>
COc1cc2c(cc1Nc1ncc(Cl)c(N3CCc4ccc(C(F)F)cc43)n1)CN(C)CC2 [Example 91]

>  <result>
≤ 100 nM

$$$$

# return recorded IC50 for entry COc1cc2c(cc1Nc1ncc(Cl)c(N3CCn4c3cccc4=O)n1)CN(C)CC2 [Example 31] 100 to 500 nM

Return reported IC50. Input molecule: CCc1c(Cl)[nH]c2ncc(-c3ccc(N)c(P(C)(C)=O)c3)cc12 [Example 69] ≤ 100 nM

For the molecule COc1cc2c(cc1Nc1ncc(Cl)c(N3CC(C)(CC(=O)O)c4ccccc43)n1)CNCC2 (stereo not shown) [Example 160] , give its measured IC50 value. ≤ 100 nM

Identify IC50 associated with the molecule CCc1c[nH]c2ncc(-c3ccc(C)c(P(C)(C)=O)c3F)cc12 [Example 62] ≤ 100 nM

Give a short answer stating reported IC50 for COc1cc2c(cc1Nc1ncc(Cl)c(N3CCc4c(OC)cccc43)n1)CN(C)CC2 [Example 89] . ≤ 100 nM

Annotate the molecule COc1cc2c(cc1Nc1ncc(Cl)c(N3C[C@@](C)(C(=O)O)c4ccccc43)n1)CN(C)CC2 (single isomer, unassigned) [Example 119] with its measured IC50. ≤ 100 nM

====

- testedOn: JAK3 (Homo sapiens, UniProt P52333)
- Construct: purchased Thermo fisher PV3855
- protocol: JAK3 biochemical assay (ADP-GLO Kinase Assay)
- studyConditions: ratio of JAK3 IC50 to HPK1 IC50; first testing facility
assayReadout: JAKs/HPK1 IC50 Ratio, B*
Give the value as a plain number.

>  <compound>
COc1cc2c(cc1Nc1ncc(Cl)c(N3CCc4c(C(F)F)cccc43)n1)CN(C)CC2

>  <JAKs/HPK1 IC50 Ratio, B*>
393

$$$$

Provide the reported JAKs/HPK1 IC50 Ratio, B* (system: JAK3 (Homo sapiens, UniProt P52333)) for COc1cc2c(cc1Nc1ncc(Cl)c(N3CC(C)(CC(=O)O)c4ccccc43)n1)CN(C)CC2 (single isomer, unassigned) [Example 148] 209

Retrieve JAKs/HPK1 IC50 Ratio, B* on JAK3 (Homo sapiens, UniProt P52333); query `CCc1c[nH]c2ncc(-c3ccc(N)c(P(C)(C)=O)c3)cc12` 70

Give reported JAKs/HPK1 IC50 Ratio, B* for `CCc1c[nH]c2ncc(-c3cc(NC(C)=O)cc(P(C)(C)=O)c3)cc12` (JAK3 (Homo sapiens, UniProt P52333)) 2

====

- testedOn: JAK3 (Homo sapiens)
- Construct: purchased Thermo fisher PV3855
- protocol: JAK3 biochemical assay (ADP-GLO Kinase Assay)
- studyConditions: B*: testing performed in a first testing facility; read-out: JAK3 IC50 (nM) Relative, B*
Here the recorded IC50 is given for each entry.

>  <molecule>
CCc1c[nH]c2ncc(-c3ccc(CF)c(P(C)(C)=O)c3)cc12

>  <IC50>
> 1000 nM

$$$$
>  <molecule>
COc1cc2c(cc1Nc1ncc(Cl)c(N3CC(C(=O)O)c4ccccc43)n1)CN(C)CC2 (single isomer, unassigned) [Example 95]

>  <IC50>
> 1000 nM

$$$$
>  <molecule>
COc1cc2c(cc1Nc1ncc(Cl)c(-n3cc(CS(C)(=O)=O)c4ccccc43)n1)CN(C)CC2

>  <IC50>
> 1000 nM

$$$$
>  <molecule>
COc1cc2c(cc1Nc1ncc(Cl)c(N3CCc4ncccc43)n1)CN(C)CC2

>  <IC50>
> 1000 nM

$$$$
>  <molecule>
COc1cc2c(cc1Nc1ncc(Cl)c(-n3nc(C(=O)O)c4ccccc43)n1)CN(C)CC2

>  <IC50>
> 1000 nM

$$$$
>  <molecule>
COc1cc2c(cc1Nc1ncc(Cl)c(-n3cc(CC#N)c4ccccc43)n1)CN(C)CC2

>  <IC50>
500 to 1000 nM

$$$$

Report value: IC50, system: JAK3 (Homo sapiens), molecule: `COc1cc2c(cc1Nc1ncc(Cl)c(-n3cc(CC(=O)O)c4ccc(F)cc43)n1)CN(C)CC2` 100 to 500 nM

Report IC50 from JAK3 (Homo sapiens) testing of `CCc1c[nH]c2ncc(-c3ccc(C)c(P(C)(C)=O)c3)cc12` > 1000 nM

Fill in: IC50 on JAK3 (Homo sapiens), entry `CCc1c[nH]c2ncc(-c3ccc(NC4COC4)c(P(C)(C)=O)c3)cc12` > 1000 nM

Give IC50 only, for `CCc1c[nH]c2ncc(-c3cc(NC(C)=O)cc(P(C)(C)=O)c3)cc12` , using JAK3 (Homo sapiens) data. > 1000 nM

Consider the molecule COc1cc2c(cc1Nc1ncc(Cl)c(N3CC(C)(C(=O)O)c4cc(F)ccc43)n1)CN(C)CC2 (stereo not shown) tested on JAK3 (Homo sapiens); state its IC50. ≤ 100 nM
